Each entry below carries its recorded MIC.
system: Mycobacterium tuberculosis; experiment: Antimicrobial activity against Mycobacterium tuberculosis H37Rv assessed as growth inhibition after 7 days by microbroth dilution method; assay type: functional; settings: 168 h
API: value field is a number in µg/mL; no unit string.

Below, 6 compounds whose answers are already recorded.
{"line.notation": "O=C1CCCCN1c1ccc(CO[C@@H]2COc3nc([N+](=O)[O-])cn3C2)cc1F", "MIC (µg/mL)": 3.13}
{"line.notation": "O=[N+]([O-])c1cn2c(n1)OC[C@@H](OCc1ccc(N3CCCCC3)nc1)C2", "MIC (µg/mL)": 0.78}
{"line.notation": "O=[N+]([O-])c1cn2c(n1)OC[C@@H](OCc1ccc(N3CCSCC3)c(F)c1)C2", "MIC (µg/mL)": 3.13}
{"line.notation": "O=C1COCCN1c1ccc(CO[C@@H]2COc3nc([N+](=O)[O-])cn3C2)cc1F", "MIC (µg/mL)": 0.78}
{"line.notation": "O=C1COCCN1c1ccc(CO[C@@H]2COc3nc([N+](=O)[O-])cn3C2)cn1", "MIC (µg/mL)": 3.13}
{"line.notation": "O=C1CCCCN1c1ccc(CO[C@@H]2COc3nc([N+](=O)[O-])cn3C2)cn1", "MIC (µg/mL)": 3.13}

[ask] Any idea what its MIC is? The compound is `CC(=O)NC[C@H]1CN(c2ccc(N3CCOCC3)c(F)c2)C(=O)O1`
[reply] 0.3

[ask] // query MIC value for entry `O=C1CSCCN1c1ccc(CO[C@@H]2COc3nc([N+](=O)[O-])cn3C2)cc1F`
[reply] 50

[ask] Which value of MIC has been reported for `O=C1CSCCN1c1ccc(CO[C@@H]2COc3nc([N+](=O)[O-])cn3C2)cn1` in the records?
[reply] 50

[ask] Consider the compound `O=C1CCCCN1c1ccc(CO[C@@H]2COc3nc([N+](=O)[O-])cn3C2)cc1` and give its measured MIC.
[reply] 1.56

[ask] May I ask what MIC has been recorded for `O=C1CSCCN1c1ccc(CO[C@@H]2COc3nc([N+](=O)[O-])cn3C2)cc1` ?
[reply] 25

[ask] Name the recorded MIC for `O=[N+]([O-])c1cn2c(n1)OC[C@@H](OCc1ccc(OC(F)(F)F)cc1)C2` .
[reply] 0.39

[ask] MIC for `O=[N+]([O-])c1cn2c(n1)OC[C@@H](OCc1ccc(N3CCCCC3)cc1)C2` ?
[reply] 0.39
